# Test system: NCI/ADR-RES ovarian
# test.name: NCI-60 one-dose screen, 48 h (100 = growth as untreated, 0 = no growth, -100 = all killed)
# measurement.conditions: 10 µM unless noted
Compounds without any hit were thinned out: in the full panel of roughly 83,000, 20% have a hit.
Catalogue of growth readings, one per entry.
The response must be a number in % with no trailing unit.

Lookup: Give the reported value of growth for this record: CC(O)CNC(Cc1ccccc1)c1ccc2c(c1)OCO2 (centres undefined)
Found: 94.7

Lookup: Give the reported value of growth for this record: "COc1cc(/C=C/C(=O)c2cccc(-n3cc(-c4ccc(Cl)cc4)[nH]c3=O)c2)ccc1O"
Found: 35.4

Lookup: Give the reported value of growth for this record: "C[C@@H]1NC(=O)[C@H](Cc2ccccc2)N(Cc2cccnc2)C1=O"
Found: 104

Lookup: Give the reported value of growth for this record: COC1C(O)CC(OC2CC(OC3CC(O[C@@H]4C(=O)c5c(cc6cc(OC7CC(OC8CC(O)C(O)C(C)O8)C(O)C(C)O7)c(C)c(O)c6c5O)CC4[C@H](OC)C(=O)O)OC(C)C3O)OC(C)C2O)OC1C (some centres undefined)
Found: 63
